Source listed as the kinase profiling compilation of Christmann-Franck et al. (2016).

# TESTED_SYSTEM: BRSK1 (human) (UniProt Q8TDC3)
# Sequence (Q8TDC3 whole entry, looked up): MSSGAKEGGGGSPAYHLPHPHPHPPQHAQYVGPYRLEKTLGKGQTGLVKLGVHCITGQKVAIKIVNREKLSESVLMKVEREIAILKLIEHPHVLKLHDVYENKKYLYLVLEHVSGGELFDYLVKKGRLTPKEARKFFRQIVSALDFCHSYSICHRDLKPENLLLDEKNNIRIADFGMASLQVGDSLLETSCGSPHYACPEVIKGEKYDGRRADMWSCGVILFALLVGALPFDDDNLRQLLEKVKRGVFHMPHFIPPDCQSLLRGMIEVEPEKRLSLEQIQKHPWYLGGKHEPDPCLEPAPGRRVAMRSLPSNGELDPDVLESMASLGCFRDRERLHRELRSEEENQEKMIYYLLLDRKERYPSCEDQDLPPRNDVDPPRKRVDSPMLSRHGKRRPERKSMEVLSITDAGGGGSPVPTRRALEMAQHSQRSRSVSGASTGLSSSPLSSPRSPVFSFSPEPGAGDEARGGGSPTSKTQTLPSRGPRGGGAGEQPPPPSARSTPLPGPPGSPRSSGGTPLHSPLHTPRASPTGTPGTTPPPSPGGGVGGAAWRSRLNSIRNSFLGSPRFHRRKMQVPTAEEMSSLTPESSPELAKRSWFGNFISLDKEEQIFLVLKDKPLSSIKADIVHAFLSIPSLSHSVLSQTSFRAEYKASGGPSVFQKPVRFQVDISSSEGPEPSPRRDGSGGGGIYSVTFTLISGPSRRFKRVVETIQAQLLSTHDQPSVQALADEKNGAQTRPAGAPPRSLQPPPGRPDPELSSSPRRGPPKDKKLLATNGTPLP
# ASSAY_DETAILS: radiometric filter-binding kinase assay, Kinase HotSpot
# RUN_PARAMETERS: compound 0.5 µM; ATP 10 µM
QUANTITY_KIND: residual activity (%)
Provide the reading as a plain figure in %.

Query "Ic1cccc(CSc2nnc(-c3ccncc3)o2)c1" on BRSK1 (human) (UniProt Q8TDC3); residual activity returned: 101

Query "COc1cc2ncnc(Nc3ccc(OCc4ccccc4)cc3)c2cc1OC" on BRSK1 (human) (UniProt Q8TDC3); residual activity returned: 103

Query "Cn1c2ccccc2c2c3c(c4c5ccccc5n(CCC#N)c4c21)CNC3=O" on BRSK1 (human) (UniProt Q8TDC3); residual activity returned: 20.2

Query "N#C/C(=C\c1ccc(O)c(O)c1)C(=O)NCc1ccccc1" on BRSK1 (human) (UniProt Q8TDC3); residual activity returned: 104

Query "CS(=O)(=O)CCNCc1ccc(-c2ccc3ncnc(Nc4ccc(OCc5cccc(F)c5)c(Cl)c4)c3c2)o1" on BRSK1 (human) (UniProt Q8TDC3); residual activity returned: 98.6

Query "COc1ccc(S(=O)(=O)N(CCO)c2ccccc2CN(C)C/C=C/c2ccc(Cl)cc2)cc1" on BRSK1 (human) (UniProt Q8TDC3); residual activity returned: 98.4
